Values were extracted from ChEMBL document CHEMBL2016438.

# System: KBVIN
# measurementProtocol: Antiproliferative activity against human KBVIN cells at 10 ug/ml
# Format: functional, cell-based
Calls of active or inactive are those of the source. No cut-off for these calls is given here.
measure: inhibition

smilesRepr: O=C1C(Cl)=C(NCCN2CCOCC2)C(=O)c2ccccc21
testResult: inactive
//
smilesRepr: O=C1C(Cl)=C(Nc2ccc3c(c2)OCO3)C(=O)c2ccccc21
testResult: inactive
//
smilesRepr: COc1ccc(CC(=O)Nc2ccc(NC3=C(Cl)C(=O)c4ccccc4C3=O)cc2)cc1
testResult: inactive

----------
# Test system: A549
# measurementProtocol: Antiproliferative activity against human A549 cells
# Type: functional, cell-based
Quick reference: IC50 of the listed items.
Express your answer in µM, writing the number without its unit.

smilesRepr: O=C1C(Cl)=C(Nc2ccc(C(=O)N3CCOCC3)cc2)C(=O)c2ccccc21
unitDescriptor: µM
IC50: 12.5

Enquiry: Fill in the recorded IC50 for this compound, with A549 as test system: O=C1C(Cl)=C(Nc2ccc(S(=O)(=O)Nc3ccccn3)cc2)C(=O)c2ccccc21
Return: 12.2

Enquiry: Quick check: IC50 on A549, item COc1cc(NC(=O)c2ccc(NC3=C(Cl)C(=O)c4ccccc4C3=O)cc2)cc(OC)c1 ?
Return: 9.64
